Values were extracted from patent US12441703B2.

molecular target: human NaV 1.8 (Homo sapiens); test: E-VIPR assay for detecting and measuring NaV inhibition properties; assay type: cell-based; conditions: E-VIPR assay conducted in the presence of human serum; HEK cells expressing truncated human NaV 1.8; read-out: IC50
Sequence (Q9Y5Y9 whole entry, looked up, the tested form may be a part): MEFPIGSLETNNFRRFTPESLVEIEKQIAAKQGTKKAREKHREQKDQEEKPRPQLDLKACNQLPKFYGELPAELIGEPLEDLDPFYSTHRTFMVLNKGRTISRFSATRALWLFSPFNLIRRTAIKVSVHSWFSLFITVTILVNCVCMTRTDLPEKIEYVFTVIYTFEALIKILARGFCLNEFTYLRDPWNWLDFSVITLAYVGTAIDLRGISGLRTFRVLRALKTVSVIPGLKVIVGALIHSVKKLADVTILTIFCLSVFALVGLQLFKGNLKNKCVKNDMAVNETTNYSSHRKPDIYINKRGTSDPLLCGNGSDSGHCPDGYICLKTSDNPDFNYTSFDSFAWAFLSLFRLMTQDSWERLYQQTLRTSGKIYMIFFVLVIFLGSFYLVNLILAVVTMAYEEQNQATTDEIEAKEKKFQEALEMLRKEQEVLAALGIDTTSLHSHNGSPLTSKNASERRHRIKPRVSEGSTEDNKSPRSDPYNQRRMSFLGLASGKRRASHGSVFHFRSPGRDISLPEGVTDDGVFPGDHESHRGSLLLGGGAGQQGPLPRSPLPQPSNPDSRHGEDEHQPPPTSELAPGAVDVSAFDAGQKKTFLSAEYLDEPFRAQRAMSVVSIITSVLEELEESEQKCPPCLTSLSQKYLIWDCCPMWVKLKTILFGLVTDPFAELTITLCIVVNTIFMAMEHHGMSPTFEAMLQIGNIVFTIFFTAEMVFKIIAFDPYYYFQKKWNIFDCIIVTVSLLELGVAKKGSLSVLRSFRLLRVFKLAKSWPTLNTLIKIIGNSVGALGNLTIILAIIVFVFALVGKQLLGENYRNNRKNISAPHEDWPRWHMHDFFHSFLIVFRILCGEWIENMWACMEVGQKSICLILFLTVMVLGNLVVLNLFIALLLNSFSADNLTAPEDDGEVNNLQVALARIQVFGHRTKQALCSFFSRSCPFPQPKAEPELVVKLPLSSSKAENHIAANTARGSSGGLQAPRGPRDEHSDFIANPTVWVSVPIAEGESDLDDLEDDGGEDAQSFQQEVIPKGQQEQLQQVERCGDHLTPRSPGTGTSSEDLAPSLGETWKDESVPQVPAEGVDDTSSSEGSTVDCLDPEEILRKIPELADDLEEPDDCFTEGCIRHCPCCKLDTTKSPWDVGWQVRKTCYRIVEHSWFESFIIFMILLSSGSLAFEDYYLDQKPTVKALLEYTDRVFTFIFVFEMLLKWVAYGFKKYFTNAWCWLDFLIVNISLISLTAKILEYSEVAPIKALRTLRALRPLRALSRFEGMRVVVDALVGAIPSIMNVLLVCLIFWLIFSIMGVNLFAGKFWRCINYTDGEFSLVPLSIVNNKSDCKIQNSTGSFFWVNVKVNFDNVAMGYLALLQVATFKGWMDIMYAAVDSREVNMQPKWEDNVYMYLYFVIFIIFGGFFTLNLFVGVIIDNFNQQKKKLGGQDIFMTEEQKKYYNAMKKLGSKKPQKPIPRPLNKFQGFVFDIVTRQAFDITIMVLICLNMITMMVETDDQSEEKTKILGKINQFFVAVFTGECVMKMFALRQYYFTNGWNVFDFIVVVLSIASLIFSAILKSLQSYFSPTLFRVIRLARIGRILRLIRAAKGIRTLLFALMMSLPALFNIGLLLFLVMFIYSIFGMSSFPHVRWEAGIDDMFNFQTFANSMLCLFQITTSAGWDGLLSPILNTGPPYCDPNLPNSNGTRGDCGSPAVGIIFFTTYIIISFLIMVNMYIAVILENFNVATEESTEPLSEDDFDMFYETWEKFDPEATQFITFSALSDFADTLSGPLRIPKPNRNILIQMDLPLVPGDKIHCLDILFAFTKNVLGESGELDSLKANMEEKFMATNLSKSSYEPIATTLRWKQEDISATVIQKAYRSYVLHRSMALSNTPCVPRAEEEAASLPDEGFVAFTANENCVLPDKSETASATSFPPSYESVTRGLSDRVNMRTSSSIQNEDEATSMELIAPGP
Endpoint: IC50

smiles_str=COc1cc(OC(F)(F)F)ccc1Oc1ccc(C(F)(F)F)c(OCC(C)C)c1C(=O)Nc1ccnc(C(N)=O)c1 experimental_result="> 3 µM"

## Input Quick check: IC50 of NC(=O)c1cc(NC(=O)c2c(Oc3c(F)cc(F)cc3F)ccc(C(F)(F)F)c2F)ccn1 ?
## Output > 3 µM

## Input Lookup COc1c(C(F)(F)F)ccc(Oc2ccc(C(F)(F)F)nc2)c1C(=O)Nc1ccnc(C(N)=O)c1
## Output > 3 µM
